- Tested on: HL-60
- EXPERIMENT: Cytoprotection against human HL60 cells assessed as inhibition of H2O2-induced cell death pretreated for 1 hr followed by H2O2 stimulation measured after 3 hrs by p-iodonitrotetrazolium violet dye based LDH assay
- Assay type: functional
Binary call on IC50 with cut-off 900 nM: strictly below means true (1), and equality or higher means false (0).

Before answering, review these 2 worked examples.
# ITEM SMILES, LABEL
rows = [
    ("CN1C(=O)C(NC(c2ccccc2)c2ccccc2)=C(c2cn(C)c3ccccc23)C1=O", "false (0)"),
    ("CN1C(=O)C(NC2CCCCC2)=C(c2cn(C)c3ccccc23)C1=O", "false (0)"),
]

Query string: Dear reviewer, please state whether CCCNC1=C(c2cn(C)c3ccccc23)C(=O)N(CC)C1=O has IC50 strictly beneath 900 nM.
Result string: true (1)

Query string: Dear reviewer, please state whether CN(C)CCNC1=C(c2cn(C)c3ccccc23)C(=O)N(C)C1=O has IC50 strictly beneath 900 nM.
Result string: true (1)

Query string: Dear reviewer, please state whether CN1C(=O)C(NCc2ccccn2)=C(c2cn(C)c3ccccc23)C1=O has IC50 strictly beneath 900 nM.
Result string: false (0)

Query string: Dear reviewer, please state whether CCCNC1=C(c2cn(C)c3ccccc23)C(=O)N(C(c2ccccc2)(c2ccccc2)c2ccccc2)C1=O has IC50 strictly beneath 900 nM.
Result string: true (1)

Query string: Dear reviewer, please state whether COc1ccc(CNC2=C(c3cn(C)c4ccccc34)C(=O)N(C)C2=O)cc1 has IC50 strictly beneath 900 nM.
Result string: true (1)
